Attribution: ChEMBL document CHEMBL1155459

method.summary: Inhibition of Plasmodium falciparum falcipain-2 after 12 hrs by fluorescence spectroscopy-based on-bead assay
Parameters: concentration or dose not given beside the values
study.conditions: concentration not given here
Peptide text beside a SMILES is read from it.
Listed here are molecules together with their documented inhibition.
observable: inhibition (%)

molecule: CC(C)[C@H](NC(=O)[C@H](C)NC(=O)[C@@H](NC(=O)[C@H](CCC(N)=O)NC(=O)/C=C/C(=O)NCC(=O)NCC(=O)N[C@@H](Cc1ccccc1)C(=O)O)c1ccccc1)C(N)=O (HELM PEPTIDE1{[O=C(/C=C/C(=O)[*:2])NCC(=O)NCC(=O)N[C@@H](Cc1ccccc1)C(=O)O].Q.[Phg].A.V.[am]}$$$$V2.0)
observable: inhibition
assay.result: 34
--
molecule: CC[C@H](C)[C@H](NC(=O)[C@H](Cc1ccccc1)NC(=O)/C=C/C(=O)NCC(=O)NCC(=O)N[C@@H](Cc1ccccc1)C(=O)O)C(=O)N[C@H](C(=O)N[C@H](C(N)=O)C(C)C)C(C)C (HELM PEPTIDE1{[O=C(/C=C/C(=O)[*:2])NCC(=O)NCC(=O)N[C@@H](Cc1ccccc1)C(=O)O].F.I.V.V.[am]}$$$$V2.0)
observable: inhibition
assay.result: 58

----------
method.summary: Inhibition of Plasmodium falciparum falcipain-2 after 12 hrs by fluorescence spectroscopy-based on-bead assay
Design: concentration or dose not given beside the values
study.conditions: concentration not given here
Peptide text beside a SMILES is read from it.

compound: CC[C@H](C)[C@H](NC(=O)[C@H](CCC(N)=O)NC(=O)/C=C/C(=O)NCC(=O)NCC(=O)N[C@@H](Cc1ccccc1)C(=O)O)C(=O)N[C@@H](C)C(=O)N[C@H](C(N)=O)C(C)C (HELM PEPTIDE1{[O=C(/C=C/C(=O)[*:2])NCC(=O)NCC(=O)N[C@@H](Cc1ccccc1)C(=O)O].Q.I.A.V.[am]}$$$$V2.0)
inhibition, %: 38
--
compound: CC(C)C[C@H](NC(=O)[C@@H](NC(=O)[C@H](CCC(N)=O)NC(=O)/C=C/C(=O)NCC(=O)NCC(=O)N[C@@H](Cc1ccccc1)C(=O)O)C1CCCCC1)C(=O)N[C@H](C(N)=O)C(C)C (HELM PEPTIDE1{[O=C(/C=C/C(=O)[*:2])NCC(=O)NCC(=O)N[C@@H](Cc1ccccc1)C(=O)O].Q.[O=C([C@@H](N[*:1])C1CCCCC1)[*:2]].L.V.[am]}$$$$V2.0)
inhibition, %: 45

----------
method.summary: Inhibition of Plasmodium falciparum falcipain-2 after 12 hrs by fluorescence spectroscopy-based on-bead assay
Parameters: concentration or dose not given beside the values
study.conditions: concentration not given here
Peptide text beside a SMILES is read from it.

molecule: CC[C@H](C)[C@H](NC(=O)[C@H](Cc1ccccc1)NC(=O)/C=C/C(=O)NCC(=O)NCC(=O)N[C@@H](Cc1ccccc1)C(=O)O)C(=O)N[C@@H](CC(C)C)C(=O)N[C@H](C(N)=O)C(C)C (HELM PEPTIDE1{[O=C(/C=C/C(=O)[*:2])NCC(=O)NCC(=O)N[C@@H](Cc1ccccc1)C(=O)O].F.I.L.V.[am]}$$$$V2.0)
measurement.units: %
inhibition: 58

molecule: CC[C@H](C)[C@H](NC(=O)[C@H](CC(N)=O)NC(=O)/C=C/C(=O)N[C@@H](C)C(=O)NCC(=O)N[C@@H](Cc1ccccc1)C(=O)O)C(=O)N[C@@H](C)C(=O)N[C@H](C(N)=O)C(C)C (HELM PEPTIDE1{[C[C@H](NC(=O)/C=C/C(=O)[*:2])C(=O)NCC(=O)N[C@@H](Cc1ccccc1)C(=O)O].N.I.A.V.[am]}$$$$V2.0)
measurement.units: %
inhibition: 38

molecule: CC[C@H](C)[C@H](NC(=O)[C@H](C)NC(=O)/C=C/C(=O)NCC(=O)NCC(=O)N[C@@H](Cc1ccccc1)C(=O)O)C(=O)N[C@@H](C)C(=O)N[C@H](C(N)=O)C(C)C (HELM PEPTIDE1{[O=C(/C=C/C(=O)[*:2])NCC(=O)NCC(=O)N[C@@H](Cc1ccccc1)C(=O)O].A.I.A.V.[am]}$$$$V2.0)
measurement.units: %
inhibition: 54

molecule: CC(C)[C@H](NC(=O)[C@@H](NC(=O)[C@H](Cc1ccccc1)NC(=O)[C@H](CCC(N)=O)NC(=O)/C=C/C(=O)N[C@@H](C)C(=O)NCC(=O)N[C@@H](Cc1ccccc1)C(=O)O)C(C)C)C(N)=O (HELM PEPTIDE1{[C[C@H](NC(=O)/C=C/C(=O)[*:2])C(=O)NCC(=O)N[C@@H](Cc1ccccc1)C(=O)O].Q.F.V.V.[am]}$$$$V2.0)
measurement.units: %
inhibition: 58

molecule: CC(C)[C@H](NC(=O)[C@@H](NC(=O)[C@H](Cc1ccccc1)NC(=O)[C@H](C)NC(=O)/C=C/C(=O)N[C@@H](C)C(=O)NCC(=O)N[C@@H](Cc1ccccc1)C(=O)O)C(C)C)C(N)=O (HELM PEPTIDE1{[C[C@H](NC(=O)/C=C/C(=O)[*:2])C(=O)NCC(=O)N[C@@H](Cc1ccccc1)C(=O)O].A.F.V.V.[am]}$$$$V2.0)
measurement.units: %
inhibition: 35

molecule: CC(C)C[C@H](NC(=O)[C@@H](NC(=O)[C@H](CC(N)=O)NC(=O)/C=C/C(=O)N[C@@H](C)C(=O)NCC(=O)N[C@@H](Cc1ccccc1)C(=O)O)C1CCCCC1)C(=O)N[C@H](C(N)=O)C(C)C (HELM PEPTIDE1{[C[C@H](NC(=O)/C=C/C(=O)[*:2])C(=O)NCC(=O)N[C@@H](Cc1ccccc1)C(=O)O].N.[O=C([C@@H](N[*:1])C1CCCCC1)[*:2]].L.V.[am]}$$$$V2.0)
measurement.units: %
inhibition: 40

----------
method.summary: Inhibition of Plasmodium falciparum falcipain-2 after 12 hrs by fluorescence spectroscopy-based on-bead assay
Set-up: concentration or dose not given beside the values
study.conditions: concentration not given here
Peptide text beside a SMILES is read from it.

compound: CC[C@H](C)[C@H](NC(=O)[C@H](CCC(N)=O)NC(=O)/C=C/C(=O)NCC(=O)NCC(=O)N[C@@H](Cc1ccccc1)C(=O)O)C(=O)N[C@H](C(=O)N[C@H](C(N)=O)C(C)C)C(C)C (HELM PEPTIDE1{[O=C(/C=C/C(=O)[*:2])NCC(=O)NCC(=O)N[C@@H](Cc1ccccc1)C(=O)O].Q.I.V.V.[am]}$$$$V2.0)
inhibition [%]: 30
//
compound: CC(C)C[C@H](NC(=O)[C@H](CC(N)=O)NC(=O)/C=C/C(=O)N[C@@H](C)C(=O)NCC(=O)N[C@@H](Cc1ccccc1)C(=O)O)C(=O)N[C@@H](CC(C)C)C(=O)N[C@H](C(N)=O)C(C)C (HELM PEPTIDE1{[C[C@H](NC(=O)/C=C/C(=O)[*:2])C(=O)NCC(=O)N[C@@H](Cc1ccccc1)C(=O)O].N.L.L.V.[am]}$$$$V2.0)
inhibition [%]: 57
//
compound: CC(C)C[C@H](NC(=O)[C@@H](NC(=O)[C@H](C)NC(=O)/C=C/C(=O)NCC(=O)NCC(=O)N[C@@H](Cc1ccccc1)C(=O)O)c1ccccc1)C(=O)N[C@H](C(N)=O)C(C)C (HELM PEPTIDE1{[O=C(/C=C/C(=O)[*:2])NCC(=O)NCC(=O)N[C@@H](Cc1ccccc1)C(=O)O].A.[Phg].L.V.[am]}$$$$V2.0)
inhibition [%]: 53

----------
method.summary: Inhibition of Plasmodium falciparum falcipain-2 after 12 hrs by fluorescence spectroscopy-based on-bead assay
Parameters: concentration or dose not given beside the values
study.conditions: concentration not given here
Peptide text beside a SMILES is read from it.

compound: CC(C)C[C@H](NC(=O)[C@@H](NC(=O)[C@H](C)NC(=O)/C=C/C(=O)N[C@@H](C)C(=O)NCC(=O)N[C@@H](Cc1ccccc1)C(=O)O)C1CCCCC1)C(=O)N[C@H](C(N)=O)C(C)C (HELM PEPTIDE1{[C[C@H](NC(=O)/C=C/C(=O)[*:2])C(=O)NCC(=O)N[C@@H](Cc1ccccc1)C(=O)O].A.[O=C([C@@H](N[*:1])C1CCCCC1)[*:2]].L.V.[am]}$$$$V2.0)
inhibition, %: 43
//
compound: CC[C@H](C)[C@H](NC(=O)[C@H](C)NC(=O)/C=C/C(=O)NCC(=O)NCC(=O)N[C@@H](Cc1ccccc1)C(=O)O)C(=O)N[C@@H](CC(C)C)C(=O)N[C@H](C(N)=O)C(C)C (HELM PEPTIDE1{[O=C(/C=C/C(=O)[*:2])NCC(=O)NCC(=O)N[C@@H](Cc1ccccc1)C(=O)O].A.I.L.V.[am]}$$$$V2.0)
inhibition, %: 61

----------
# inhibition per record follows
method.summary: Inhibition of Plasmodium falciparum falcipain-2 after 12 hrs by fluorescence spectroscopy-based on-bead assay
Set-up: concentration or dose not given beside the values
study.conditions: concentration not given here
Peptide text beside a SMILES is read from it.

molecule: CC(C)C[C@H](NC(=O)[C@H](Cc1ccccc1)NC(=O)/C=C/C(=O)NCC(=O)NCC(=O)N[C@@H](Cc1ccccc1)C(=O)O)C(=O)N[C@H](C(=O)N[C@H](C(N)=O)C(C)C)C(C)C (HELM PEPTIDE1{[O=C(/C=C/C(=O)[*:2])NCC(=O)NCC(=O)N[C@@H](Cc1ccccc1)C(=O)O].F.L.V.V.[am]}$$$$V2.0)
inhibition (%): 46
//
molecule: CC[C@H](C)[C@H](NC(=O)[C@H](CCC(N)=O)NC(=O)/C=C/C(=O)N[C@@H](C)C(=O)NCC(=O)N[C@@H](Cc1ccccc1)C(=O)O)C(=O)N[C@H](C(=O)N[C@H](C(N)=O)C(C)C)C(C)C (HELM PEPTIDE1{[C[C@H](NC(=O)/C=C/C(=O)[*:2])C(=O)NCC(=O)N[C@@H](Cc1ccccc1)C(=O)O].Q.I.V.V.[am]}$$$$V2.0)
inhibition (%): 54
